- Tested on: NCI-H522
- runDescription: Cytotoxicity against human NCI-H522 cells assessed as growth inhibition at 1 x 10 '-5 M after 24 hrs by MTT assay
- Assay type: functional
- conditionDescription: NCI-H522, 24 h, read-out: GI
Would you mind labelling by inhibition of growth at 10 µM? At or over 9% is YES, under is NO.

Please review the entries below; each comes with its answer.
N=C(NCCN1CCOCC1)c1ccncc1	YES
N=C(NCCCCNC(=N)c1ccccn1)c1ccccn1	YES
N=C(NCCCCNC(=N)c1cnccn1)c1cnccn1	NO
N=C(NCc1cccnc1)c1ccncc1	NO
N=C(Nc1ccc(-c2ccc(NC(=N)c3cnccn3)cc2)cc1)c1cnccn1	YES
N=C(NCCCN1CCN(CCCNC(=N)c2ccccn2)CC1)c1ccccn1	YES
N=C(NCCCN1CCN(CCCNC(=N)c2ccncc2)CC1)c1ccncc1	YES
N=C(NCCN1CCNCC1)c1ccccn1	NO

Exam item: decide whether the reported inhibition of growth at 10 µM for N=C(NCCCCNC(=N)c1ccncc1)c1ccncc1 is at least 9%.
YES

Try this molecule next: O=P1(N(CCCl)CCCl)NCCCO1 (configuration not stated) [CYCLOPHOSPHAMIDE ANHYDROUS]
YES
